Test system: SW-620 colon
Test: NCI tumour cell line growth inhibition, 48 h
We begin with a simple list: items and their reported TGI.
MEASUREMENT_NAME: TGI

>>> print(df.to_string())
                                   compound  measurement_name     value
0       N#C/C(=C\c1ccc(Br)cc1)n1nnc2ccccc21               TGI   1.57 µM
1  CC(=O)/C=C(\O)c1[nH]c(C(=O)O)cc1C1CCN(Cc2ccccc2)C1=O (stereo not given)               TGI  > 100 µM
2  CCSc1nnc(-c2ccc3ccccc3c2O)n1-c1ccc(Cl)cc1               TGI  > 100 µM
3  Cc1c(N=Cc2ccc(N(CCC#N)CCC#N)cc2)c(=O)n(-c2ccccc2)n1C               TGI  > 100 µM
4  COC(=O)[C@H](Cc1ccccc1)NP(=O)(O)OCC1C=CC(n2cc(C)c(=O)[nH]c2=O)O1 (stereo not given in full)               TGI  > 100 µM
